# STUDY TARGET: Aurora kinase B (Homo sapiens) (UniProt Q96GD4);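 further: reported values are averaged percent inhibition of Aurora B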
# Sequence (Q96GD4 whole entry): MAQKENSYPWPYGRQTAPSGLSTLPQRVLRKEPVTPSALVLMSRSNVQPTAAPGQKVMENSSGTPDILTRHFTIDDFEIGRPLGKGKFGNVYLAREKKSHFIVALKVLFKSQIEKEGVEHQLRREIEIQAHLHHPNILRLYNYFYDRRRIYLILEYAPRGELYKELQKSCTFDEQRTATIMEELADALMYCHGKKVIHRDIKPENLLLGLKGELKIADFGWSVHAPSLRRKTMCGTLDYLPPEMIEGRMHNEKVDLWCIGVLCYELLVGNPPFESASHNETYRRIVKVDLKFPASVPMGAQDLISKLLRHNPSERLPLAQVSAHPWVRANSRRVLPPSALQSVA
# COND: at 0.1 µM
METRIC NAME: inhibition (%)
Please state the figure in %; there is no need to write the unit.

# example entries with known answers
COc1cc2ncn(-c3cc(OCc4ccccc4C(F)(F)F)c(C(N)=O)s3)c2cc1OC : 3.06
CS(=O)(=O)CCN(CC#N)Cc1ccc(-c2ccc3ncnc(Nc4ccc(OCc5cccc(F)c5)c(Cl)c4)c3c2)o1 : -3.61
COc1cccc(-n2ncc3c(N/N=C/c4cccc(F)c4)ncnc32)c1 : -1
COc1ccc(-c2nn3ncccc3c2-c2ccnc(Nc3ccc(Cl)c(C(F)(F)F)c3)n2)cc1 : 4.71
NCc1ccc(-c2nc(-c3ccc(Cl)c(O)c3)c(-c3ccncc3)[nH]2)cc1 : 1.17
Cc1ccc(C(=O)NC2CCCCC2)cc1-c1ccc(C(=O)NCC2CC2)cc1 : 3.05
COc1cc2ncn(-c3cc(O[C@H](C)c4ccccc4Cl)c(C(N)=O)s3)c2cc1OC : 8.7

Known value: Aurora kinase B (Homo sapiens) (UniProt Q96GD4) inhibition of the molecule `COc1cc(C)c(NC(=O)CN(C)C)cc1Nc1nc(Nc2cccc(F)c2C(N)=O)c2cc[nH]c2n1` equals -2.09
